Protein target, amino acids: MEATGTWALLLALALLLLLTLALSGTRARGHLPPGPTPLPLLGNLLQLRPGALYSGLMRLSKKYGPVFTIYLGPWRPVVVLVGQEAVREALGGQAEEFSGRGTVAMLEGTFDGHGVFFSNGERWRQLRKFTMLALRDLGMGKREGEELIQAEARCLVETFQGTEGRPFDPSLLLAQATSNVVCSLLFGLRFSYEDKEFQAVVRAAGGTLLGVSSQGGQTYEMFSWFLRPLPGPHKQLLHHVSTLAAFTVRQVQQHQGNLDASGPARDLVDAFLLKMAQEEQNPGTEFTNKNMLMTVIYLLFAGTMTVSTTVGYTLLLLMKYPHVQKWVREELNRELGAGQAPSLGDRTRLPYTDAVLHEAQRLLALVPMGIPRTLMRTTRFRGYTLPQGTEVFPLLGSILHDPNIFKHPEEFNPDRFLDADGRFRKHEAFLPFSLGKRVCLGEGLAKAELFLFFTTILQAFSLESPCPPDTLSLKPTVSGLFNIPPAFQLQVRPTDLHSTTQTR
quantity.measured: Kd (µM)

Cc1cc(-c2nc3cc(F)ccc3s2)ccc1NO = 30

Origin of the recorded values: paper PMC3707514
